Recorded values, source ChEMBL document CHEMBL3045077.

- ASSAY NOTES: Apparent elimination half life in Rattus norvegicus Sprague-Dawley (rat) at 5 mg/kg, iv
- Type: ADME, organism-based
- Design: dose 5 mg/kg, route intravenous
- EXPERIMENTAL PARAMETERS: in vivo, read-out: betat1/2(app) (converted)
METRIC NAME: half-life (min)
Just the number in min, nothing appended.

In: For the molecule "COc1ccc(-c2coc3cc(O)cc(O)c3c2=O)cc1" , what half-life is on record?
Out: 60
